Recorded values, source patent US9216173B2.

- testSystem: recombinant human GST-SYK (Homo sapiens, UniProt P43405)
- Construct: purchased Carna Biosciences 08-176
- assayExplanation: Homogeneous Time-Resolved Fluorescence (HTRF) assay for the recombinant human Syk enzyme
- Format: biochemical
- experimentalConditions: GST-hSYK 5 pM, ATP 25 μM, 10-dose titration 10 μM to 0.508 nM; read-out: rhSYK Activity (IC50 rating)
Parameter IC50: see the listing below.
metricName: IC50

* Cc1cc(C)nc(Nc2cc(N[C@H]3CC[C@@H]3N)cnc2C(N)=O)c1 (relative stereo) [Example 1.116] | 10 to 100 nM
* NC(=O)c1ncc(N[C@@H]2CCCC[C@@H]2N)cc1Nc1cccc(F)n1 [Example 1.48] | < 10 nM
* CCn1cnc(Nc2cc(N[C@@H]3CCCC[C@@H]3N)cnc2C(N)=O)n1 [Example 1.56] | 100 to 1000 nM
* NC(=O)c1ncc(N[C@@H]2CCCC[C@@H]2N)cc1Nc1cccc(-c2ccncc2)n1 [Example 1.27] | < 10 nM
* Cc1nc(Nc2cc(N[C@@H]3CCCC[C@@H]3N)cnc2C(N)=O)ccc1-c1ccc(N2CCN(C)CC2)cc1 [Example 3.13] | < 10 nM
* Cc1cc(C)nc(Nc2cc(NCC3(N)CCS(=O)(=O)CC3)cnc2C(N)=O)c1 [Example 1.29] | 10 to 100 nM
* CCC(CN)Nc1cnc(C(N)=O)c(Nc2ccn(-c3ccc(F)cc3)n2)c1 (stereo not drawn) [Example 1.96] | < 10 nM
* Cc1cccc(-n2ccc(Nc3cc(N[C@@H]4CCCC[C@@H]4N)cnc3C(N)=O)n2)c1 [Example 1.80] | < 10 nM
* Cc1cc(C)nc(Nc2cc(NCCCN)cnc2C(N)=O)c1 [Example 14] | 10 to 100 nM

* * *

- testSystem: recombinant human GST-SYK (Homo sapiens)
- Construct: purchased Carna Biosciences 08-176
- assayExplanation: Homogeneous Time-Resolved Fluorescence (HTRF) assay for the recombinant human Syk enzyme
- Format: biochemical
- experimentalConditions: GST-hSYK 5 pM, ATP 25 μM, 10-dose titration 10 μM to 0.508 nM; read-out: rhSYK Activity (IC50 rating)
- Description: Homogeneous Time-Resolved Fluorescence (HTRF) Assay for the Recombinant Human Syk Enzyme A recombinant GST-hSYK fusion protein was used to measure potency of compounds to inhibit human Syk activity. […] Final volume of the reaction was 10 μL. Phosphorylation of the peptide was allowed to proceed for 45 minutes at room temperature. […] The resulting HTRF signal was measured after 30 minutes on an EnVision (Perkin-Elmer) reader using a time-resolved fluorescence protocol.
pIC50: −log10 of the molar value.
Parameter pIC50: see the listing below.
metricName: pIC50

• NC(=O)c1ncc(N[C@@H]2CCCC[C@@H]2N)cc1Nc1cccc(CN2CCNCC2)n1 = 6.00 to 7.00
• Cc1nc(Nc2cc(N[C@@H]3CCCC[C@@H]3N)cnc2C(N)=O)ccc1-c1cccc2c1CNC2=O = > 8.00
• NC(=O)c1ncc(N[C@@H]2CCCC[C@@H]2N)cc1Nc1ccc2ccccc2n1 = > 8.00
• NC(=O)c1ncc(N[C@@H]2CCCC[C@@H]2N)cc1Nc1ccncn1 = 6.00 to 7.00
• Cc1cc(C(=O)O)cc(Nc2cc(N[C@@H]3CCCC[C@@H]3N)cnc2C(N)=O)n1 = 7.00 to 8.00
• CSCC(N)CNc1cnc(C(N)=O)c(Nc2cc(C)cc(C)n2)c1 (stereo not shown) = > 8.00
• Cc1cc(Nc2cc(N[C@@H]3CCCC[C@@H]3N)cnc2C(N)=O)nc(-c2cnn3c2CCC3)c1 = > 8.00
